target system: murine NOD1 (Mus musculus, UniProt Q8BHB0)
Construct: expressed in transfected cells; host or cells: HEK293
Sequence (Q8BHB0 whole entry): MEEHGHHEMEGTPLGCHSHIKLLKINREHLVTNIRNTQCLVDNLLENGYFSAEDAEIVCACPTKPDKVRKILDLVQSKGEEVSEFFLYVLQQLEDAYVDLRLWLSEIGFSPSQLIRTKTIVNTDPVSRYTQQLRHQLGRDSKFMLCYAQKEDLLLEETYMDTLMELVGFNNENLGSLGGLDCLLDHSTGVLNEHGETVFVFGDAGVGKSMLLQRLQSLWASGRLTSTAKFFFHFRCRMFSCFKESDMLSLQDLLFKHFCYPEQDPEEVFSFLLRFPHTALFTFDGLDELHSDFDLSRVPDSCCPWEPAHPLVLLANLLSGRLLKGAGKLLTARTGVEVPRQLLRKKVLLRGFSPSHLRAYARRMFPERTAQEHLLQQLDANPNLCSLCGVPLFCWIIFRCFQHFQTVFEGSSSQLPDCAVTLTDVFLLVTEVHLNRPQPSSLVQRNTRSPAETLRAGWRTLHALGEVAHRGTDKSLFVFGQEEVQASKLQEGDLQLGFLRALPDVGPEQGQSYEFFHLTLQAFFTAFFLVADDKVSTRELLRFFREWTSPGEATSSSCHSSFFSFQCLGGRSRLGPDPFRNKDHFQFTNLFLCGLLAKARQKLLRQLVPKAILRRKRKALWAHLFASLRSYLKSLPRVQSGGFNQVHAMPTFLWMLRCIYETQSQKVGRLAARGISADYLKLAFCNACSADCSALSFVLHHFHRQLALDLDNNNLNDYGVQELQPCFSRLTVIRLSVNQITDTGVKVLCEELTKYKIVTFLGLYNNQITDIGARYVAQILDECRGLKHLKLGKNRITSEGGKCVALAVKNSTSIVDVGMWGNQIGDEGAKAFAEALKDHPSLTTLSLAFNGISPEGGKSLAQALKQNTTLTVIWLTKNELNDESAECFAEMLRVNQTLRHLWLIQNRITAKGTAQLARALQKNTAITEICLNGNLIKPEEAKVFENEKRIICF
assay summary: NOD1 functional agonist assay, 293mNOD1-SEAP reporter cells
Assay type: cell-based
condition summary: 293mNOD1 cells, OD above 3*O.D of negative control
value type: mNod1: concentration where a significant mean optical density (OD) can be observed (µg/mL)

structure_notation=CCCCCCCCCCCC(=O)N[C@@H](C)C(=O)N[C@H](CCC(=O)N[C@H](CSC[C@H](N)C(=O)O)C(=O)NCC(=O)O)C(=O)O measurement_units=µg/mL observed_value=0.001
structure_notation=CCCCCCCCCCCC(=O)N[C@@H](C)C(=O)N[C@H](CCC(=O)N[C@H](CSC[C@H](N)C(=O)O)C(=O)N[C@H](C)C(=O)O)C(=O)O measurement_units=µg/mL observed_value=0.01
structure_notation=CCCCCCC(=O)N[C@H](CCC(=O)N[C@H](CSC[C@H](N)C(=O)O)C(=O)N[C@H](C)C(=O)O)C(=O)O measurement_units=µg/mL observed_value=0.01

[P] C[C@H](N)C(=O)N[C@H](CCC(=O)N[C@H](CSC[C@H](N)C(=O)O)C(=O)NCC(=O)O)C(=O)O
[Q] CCCCCCCCCCCCCC(=O)N[C@H](CCC(=O)N[C@H](CSC[C@H](N)C(=O)O)C(=O)NCC(=O)O)C(=O)O
IN: Input pair: P , Q . Output: entry with lower mNod1: concentration where a significant mean optical density (OD) can be observed. Please respond with the label that marks your chosen entry.
OUT: Q
